- System: EKVX NSCLC
- Method: NCI-60 one-dose screen, 48 h
- Run conditions: 10 µM unless noted
This is part of a sample that, as a whole, favours compounds with a hit. Of some 83,000 tested, about 20% had one in any assay. Calls of active or inactive are those of the source. Rule for the calls: active = growth percent below 10; inactive = the rest.
Can you answer with just one of these options? active, inactive

What classification did FC(F)(F)c1ccc2c(c1)Sc1ccccc1N2 end up with in this test?
inactive

Hi team, can someone confirm the assay call for CCCCN(CCCC)CC(O)c1ccc(OCc2ccccc2)c2ccccc12 (centres undefined) ?
inactive

Dear colleague, could you share the recorded outcome for O=C1COCCN1c1ccc(Nc2nc(Cl)nc(N3CCOCC3)n2)cc1 when you have a moment?
inactive

Given O=C(Nc1ccc(Oc2ccc(F)cc2)c(Cl)c1)c1cccnn1 , state the outcome it received in this test.
inactive

Tell me the recorded outcome of this test for C=C(C)[C@@H]1CC[C@]2(C(=O)NCCNCCNCCN)CC[C@]3(C)[C@H](CC[C@@H]4[C@@]5(C)CC[C@H](O)C(C)(C)[C@@H]5CC[C@]43C)[C@@H]12 .
active

So what was the verdict on COc1ncc(-c2ccc3nc(N)n(-c4ccccc4C(F)(F)F)c(=O)c3c2)cc1S(=O)(=O)Nc1ccc(F)cc1F in this test?
inactive

Status in this test for CC(C)[C@H]1CCC2=C3CC[C@]45OC(=O)[C@@]6(CCC(C)(C)C[C@H]64)CC[C@@]5(C)[C@]3(C)CC[C@@]21C ?
inactive

Outcome? Nc1ccc(NC(=O)c2ccccc2)c2c1C(=O)c1ccccc1C2=O
inactive

How was O=C1COCCN1c1ccc(NCc2cn(Cc3ccccc3)c3ccccc23)cc1 classified in this test?
inactive

---

- Test system: HT29 colon
- Method: NCI-60 one-dose screen, 48 h
- Run conditions: 10 µM unless noted
This is part of a sample that, as a whole, favours compounds with a hit. Of some 83,000 tested, about 20% had one in any assay. Calls of active or inactive are those of the source. Rule for the calls: active = growth percent below 10; inactive = the rest.
Pick from active, inactive when you respond.

Which outcome did this test record for the molecule CNC(=O)c1cc(Oc2cccc3nc(NC(=O)Nc4cc(C(F)(F)F)cc(C(F)(F)F)c4)ccc23)ccn1 ?
inactive

So what was the verdict on C[C@H]1[C@H](C)CC[C@]2(C(=O)O)CC[C@]3(C)C(=CC[C@@H]4[C@@]5(C)C/C(=C/c6ccco6)C(=O)C(C)(C)[C@@H]5CC[C@]43C)[C@H]12 in this test?
active

For CCOC(=O)c1cc(C#N)n2ncc3ccccc3c12 , which call appears in the assay record?
inactive

Which outcome was entered for the molecule CC(=O)Nc1ccc(C=Nc2ccc3ccccc3c2)cc1 in this test?
inactive

Can you look up the reported call for CC(C)c1ccc(C(=O)Nc2nc3ccc(O)cc3s2)cc1 for me?
inactive

# outcome recorded in this test, key = CC(C)C1=NOC(=O)C1=Cc1cn(-c2ccccc2)nc1-c1ccccc1
inactive

Can you look up the reported call for CCCCN(CCCC)CC(O)c1ccc(OCc2ccccc2)c2ccccc12 (stereo not drawn) for me?
inactive

Test call for this molecule, please: O=C(N/N=C1\c2ccccc2-c2cccc(C(=O)O)c21)c1ccc(O)cc1
inactive

Recorded test outcome, item Cc1ccccc1-n1nnc(C(=O)Nc2nc3ccc(F)cc3s2)c1C
inactive

Per the assay record, what outcome was assigned to CC(C)C1=NOC(=O)C1=Cc1cn(-c2cccnc2)nc1-c1ccccc1 ?
inactive

Tell me the assay call for COc1cc(-c2nc(SCCC(C)C)nc(Nc3ccccc3)c2C#N)cc(OC)c1OC please.
inactive

Test call for this molecule, please: CCCCCCCCCN(CCCCCCCCC)C(C)C(=O)c1ccc2cc(Br)c3ccccc3c2c1 (stereo not drawn)
inactive

What outcome does the record of this test show for COc1ccc2nc3ccccc3c(NCCNCCO)c2c1 ?
active
